The values you see were collected from paper PMC4072508.

system_under_test: T1, Bcl-w, Q92843
T1 chain: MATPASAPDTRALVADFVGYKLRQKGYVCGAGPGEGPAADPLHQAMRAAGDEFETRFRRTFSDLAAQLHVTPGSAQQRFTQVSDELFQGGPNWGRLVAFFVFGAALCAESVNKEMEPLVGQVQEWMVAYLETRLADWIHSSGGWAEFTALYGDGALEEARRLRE
assay_name: peptide SPOT array, c-Myc-tagged receptor at 1 uM or 100 nM, anti-c-Myc-Cy3
experimental_readout: SPOT signal as a fraction of Bim BH3's signal on the same receptor and array

Completed entries (count: 3):
> print(dat)
                                 binder  observed.result
1    AIKPVSFIRDLKKIARHFRFGNQEDA [USP36]             0.75
2    DQEEACASRQLHSLASFSTVTARRNP [INCA1]              0.2
3  FSSDAVTSRVLLNVGQEVIAVVEENK [MOV10L1]             0.02

[A] PFDCRDYAVVLRKYADKIYNISMKHP [FOLH1B]
[B] DFMGRTFAKPLVKMADEAYCPPRFPP [OTOF]
Kindly identify which of A and B has the larger recorded SPOT signal as a fraction of Bim BH3's signal on the same receptor and array value. Indicate which entry you chose by stating its label.
A
